# TEST_SYSTEM: T1, Biotin-hBA2 (human, biotinylated (sites not given))
# T1 construct: hBA2 consists of two dimers; also called biotinylated hBA2; human bow-Ang2
# T1 sequence (chain, as listed by the source limits assumed): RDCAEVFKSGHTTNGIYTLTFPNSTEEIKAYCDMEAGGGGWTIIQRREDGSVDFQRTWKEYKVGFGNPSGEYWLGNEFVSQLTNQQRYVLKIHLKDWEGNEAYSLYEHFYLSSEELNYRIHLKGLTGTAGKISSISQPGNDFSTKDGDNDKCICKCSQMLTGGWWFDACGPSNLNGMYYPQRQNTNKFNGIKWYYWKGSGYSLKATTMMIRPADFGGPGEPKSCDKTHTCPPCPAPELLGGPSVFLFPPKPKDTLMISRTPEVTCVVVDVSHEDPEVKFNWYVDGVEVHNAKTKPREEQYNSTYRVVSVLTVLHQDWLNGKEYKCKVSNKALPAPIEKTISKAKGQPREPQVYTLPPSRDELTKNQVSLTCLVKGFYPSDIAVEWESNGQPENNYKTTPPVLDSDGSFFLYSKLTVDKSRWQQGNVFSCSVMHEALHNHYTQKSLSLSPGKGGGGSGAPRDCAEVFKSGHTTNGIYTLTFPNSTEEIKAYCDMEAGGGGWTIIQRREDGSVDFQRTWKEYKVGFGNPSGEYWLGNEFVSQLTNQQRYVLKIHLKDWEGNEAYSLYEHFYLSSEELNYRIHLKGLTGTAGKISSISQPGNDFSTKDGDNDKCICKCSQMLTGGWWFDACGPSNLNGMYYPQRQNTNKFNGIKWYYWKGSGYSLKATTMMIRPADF
# PROCEDURE_DETAILS: blocking ELISA, biotin-hBA2 to hTie-2
Could you please report measured pIC50 for the items listed next?
Answers are plain numbers, as −log10 of the molar value.

These recorded examples may help you get a feel for the data.
{"BINDER": "H1H744N (antibody, V domains shown) VH: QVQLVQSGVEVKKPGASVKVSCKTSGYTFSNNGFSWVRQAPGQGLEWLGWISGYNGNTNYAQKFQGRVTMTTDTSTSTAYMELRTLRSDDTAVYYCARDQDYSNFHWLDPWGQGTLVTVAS VL: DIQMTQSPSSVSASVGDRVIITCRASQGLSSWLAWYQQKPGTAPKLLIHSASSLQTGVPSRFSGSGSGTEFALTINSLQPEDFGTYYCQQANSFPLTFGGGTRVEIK", "pIC50": 10.60}
{"BINDER": "H1H704P (antibody, V domains shown, Human IgG1) VH: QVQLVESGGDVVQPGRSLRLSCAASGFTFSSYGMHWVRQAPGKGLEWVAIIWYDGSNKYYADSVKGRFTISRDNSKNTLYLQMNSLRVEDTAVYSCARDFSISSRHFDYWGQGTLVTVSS VL: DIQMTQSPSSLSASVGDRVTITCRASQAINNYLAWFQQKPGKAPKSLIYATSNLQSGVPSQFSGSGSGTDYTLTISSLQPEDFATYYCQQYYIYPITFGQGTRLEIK", "pIC50": 10.25}

Continue with the next binder.
stdin: Please indicate pIC50 recorded for H1H724N (antibody, V domains shown) VH: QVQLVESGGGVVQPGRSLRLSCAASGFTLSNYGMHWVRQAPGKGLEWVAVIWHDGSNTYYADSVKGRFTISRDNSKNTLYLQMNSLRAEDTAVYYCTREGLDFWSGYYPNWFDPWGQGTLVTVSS VL: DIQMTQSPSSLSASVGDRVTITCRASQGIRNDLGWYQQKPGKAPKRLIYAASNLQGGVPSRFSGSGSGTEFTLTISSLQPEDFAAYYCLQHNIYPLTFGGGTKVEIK
stdout: 11.40
